Provide the reported total protein half-life in vivo of each item.
Assay: total protein half-life in vivo (active degradation + dilution); higher = more stable protein
Settings: E. coli NCM3722 delta-smpB; growth: N-lim chemostat; doubling time 6 h
All answers are understood in h, so give the number only.

Request: GET /values?readout=total protein half-life in vivo&item= MSESVQSNSAVLVHFTLKLDDGTTAESTRNNGKPALFRLGDASLSEGLEQHLLGLKVGDKTTFSLEPDAAFGVPSPDLIQYFSRREFMDAGEPEIGAIMLFTAMDGSEMPGVIREINGDSITVDFNHPLAGQTVHFDIEVLEIDPALEA [P0AEM0]
Response: 3.85

Request: Now consider MPAENIVEVHHLKKSVGQGEHELSILTGVELVVKRGETIALVGESGSGKSTLLAILAGLDDGSSGEVSLVGQPLHNMDEEARAKLRAKHVGFVFQSFMLIPTLNALENVELPALLRGESSAESRNGAKALLEQLGLGKRLDHLPAQLSGGEQQRVALARAFNGRPDVLFADEPTGNLDRQTGDKIADLLFSLNREHGTTLIMVTHDLQLAARCDRCLRLVNGQLQEEA [P0A9T8] and answer again.
Response: 5.39

Request: Now consider MSLPHCPKCNSEYTYEDNGMYICPECAYEWNDAEPAQESDELIVKDANGNLLADGDSVTIIKDLKVKGSSSMLKIGTKVKNIRLVEGDHNIDCKIDGFGPMKLKSEFVKKN [P0AFJ1] and answer again.
Response: 4.71

Request: Now consider MERFDAIIIGAGAAGMFCSALAGQAGRRVLLIDNGKKPGRKILMSGGGRCNFTNLYVEPGAYLSQNPHFCKSALARFTQWDFIDLVNKHGIAWHEKTLGQLFCDDSAQQIVDMLVDECEKGNVTFRLRSEVLSVAKDETGFTLDLNGMTVGCEKLVIATGGLSMPGLGASPFGYKIAEQFGLNVLPTRAGLVPFTLHKPLLEELQVLAGVAVPSVITAENGTVFRENLLFTHRGLSGPAVLQISSYWQPGEFVSINLLPDVDLETFLNEQRNAHPNQSLKNTLAVHLPKRLVERLQQLGQIPDVSLKQLNVRDQQALISTLTDWRVQPNGTEGYRTAEVTLGGVDTNELSSRTMEARKVPGLYFIGEVMDVTGWLGGYNFQWAWSSAWACAQDLIAAKSS and answer again.
Response: 4.72

Request: Now consider MIPEKRIIRRIQSGGCAIHCQDCSISQLCIPFTLNEHELDQLDNIIERKKPIQKGQTLFKAGDELKSLYAIRSGTIKSYTITEQGDEQITGFHLAGDLVGFDAIGSGHHPSFAQALETSMVCEIPFETLDDLSGKMPNLRQQMMRLMSGEIKGDQDMILLLSKKNAEERLAAFIYNLSRRFAQRGFSPREFRLTMTRGDIGNYLGLTVETISRLLGRFQKSGMLAVKGKYITIENNDALAQLAGHTRNVA [P0A9E5] and answer again.
Response: 1.24

Request: Now consider MDVRQSIHSAHAKTLDTQGLRNEFLVEKVFVADEYTMVYSHIDRIIVGGIMPITKTVSVGGEVGKQLGVSYFLERRELGVINIGGAGTITVDGQCYEIGHRDALYVGKGAKEVVFASIDTGTPAKFYYNCAPAHTTYPTKKVTPDEVSPVTLGDNLTSNRRTINKYFVPDVLETCQLSMGLTELAPGNLWNTMPCHTHERRMEVYFYFNMDDDACVFHMMGQPQETRHIVMHNEQAVISPSWSIHSGVGTKAYTFIWGMVGENQVFDDMDHVAVKDLR and answer again.
Response: 3.71

* * *

Provide the reported total protein half-life in vivo of each item.
Assay: total protein half-life in vivo (active degradation + dilution); higher = more stable protein
Conditions: E. coli NCM3722 delta-clpP delta-lon delta-hslV; growth: N-lim chemostat; doubling time 6 h
Express the reported value numerically, then name its unit.

Request: GET /values?readout=total protein half-life in vivo&item= MSKNYHIAVLPGDGIGPEVMTQALKVLDAVRNRFAMRITTSHYDVGGAAIDNHGQPLPPATVEGCEQADAVLFGSVGGPKWEHLPPDQQPERGALLPLRKHFKLFSNLRPAKLYQGLEAFCPLRADIAANGFDILCVRELTGGIYFGQPKGREGSGQYEKAFDTEVYHRFEIERIARIAFESARKRRHKVTSIDKANVLQSSILWREIVNEIATEYPDVELAHMYIDNATMQLIKDPSQFDVLLCSNLFGDILSDECAMITGSMGMLPSASLNEQGFGLYEPAGGSAPDIAGKNIANPIAQILSLALLLRYSLDADDAACAIERAINRALEEGIRTGDLARGAAAVSTDEMGDIIARYVAEGV
Response: 3.45 h

Request: Now consider MSLTRLLIRDFRNIETADLALSPGFNFLVGANGSGKTSVLEAIYTLGHGRAFRSLQIGRVIRHEQEAFVLHGRLQGEERETAIGLTKDKQGDSKVRIDGTDGHKVAELAHLMPMQLITPEGFTLLNGGPKYRRAFLDWGCFHNEPGFFTAWSNLKRLLKQRNAALRQVTRYEQLRPWDKELIPLAEQISTWRAEYSAGIAADMADTCKQFLPEFSLTFSFQRGWEKETEYAEVLERNFERDRQLTYTAHGPHKADLRIRADGAPVEDTLSRGQLKLLMCALRLAQGEFLTRESGRRCLYLIDDFASELDDERRGLLASRLKATQSQVFVSAISAEHVIDMSDENSKMFTVEKGKITD [P0A7H0] and answer again.
Response: 5.54 h

* * *

Assay: total protein half-life in vivo (active degradation + dilution); higher = more stable protein
Conditions: wild type E. coli NCM3722; growth: N-lim chemostat; doubling time 12 h
Provide the reported total protein half-life in vivo of each item.
All answers are understood in h, so give the number only.

Request: GET /values?readout=total protein half-life in vivo&item= MDLASLRAQQIELASSVIREDRLDKDPPDLIAGADVGFEQGGEVTRAAMVLLKYPSLELVEYKVARIATTMPYIPGFLSFREYPALLAAWEMLSQKPDLVFVDGHGISHPRRLGVASHFGLLVDVPTIGVAKKRLCGKFEPLSSEPGALAPLMDKGEQLAWVWRSKARCNPLFIATGHRVSVDSALAWVQRCMKGYRLPEPTRWADAVASERPAFVRYTANQP
Response: 8.84

Request: Now consider MTVTRPRAERGAFPPGTEHYGRSLLGAPLIWFPAPAASRESGLILAGTHGDENSSVVTLSCALRTLTPSLRRHHVVLCVNPDGCQLGLRANANGVDLNRNFPAANWKEGETVYRWNSAAEERDVVLLTGDKPGSEPETQALCQLIHRIQPAWVVSFHDPLACIEDPRHSELGEWLAQAFELPLVTSVGYETPGSFGSWCADLNLHCITAEFPPISSDEASEKYLFAMANLLRWHPKDAIRPS [P0ACV6] and answer again.
Response: 6.85

* * *

Assay: total protein half-life in vivo (active degradation + dilution); higher = more stable protein
Settings: E. coli NCM3722 delta-clpP delta-lon delta-hslV; growth: N-lim chemostat; doubling time 6 h
Attribute measured: total protein half-life in vivo (h)
All answers are understood in h, so give the number only.

Request: GET /values?readout=total protein half-life in vivo&item= MKRMIALDGAQGEGGGQILRSALSLSMITGQPFTITSIRAGRAKPGLLRQHLTAVKAATEICGATVEGAELGSQRLLFRPGTVRGGDYRFAIGSAGSCTLVLQTVLPALWFADGPSRVEVSGGTDNPSAPPADFIRRVLEPLLAKIGIHQQTTLLRHGFYPAGGGVVATEVSPVASFNTLQLGERGNIVQMRGEVLLAGVPRHVAEREIATLAGSFSLHEQNIHNLPRDQGPGNTVSLEVESENITERFFVVGEKRVSAEVVAAQLVKEVKRYLASTAAVGEYLADQLVLPMALAGAGEFTVAHPSCHLLTNIAVVERFLPVRFSLIETDGVTRVSIE
Response: 5.12

Request: Now consider MLSNDILRSVRYILKANNNDLVRILALGNVEATAEQIAVWLRKEDEEGFQRCPDIVLSSFLNGLIYEKRGKDESAPALEPERRINNNIVLKKLRIAFSLKTDDILAILTEQQFRVSMPEITAMMRAPDHKNFRECGDQFLRYFLRGLAARQHVKKG and answer again.
Response: 5.25

Request: Now consider MNKTQLIDVIAEKAELSKTQAKAALESTLAAITESLKEGDAVQLVGFGTFKVNHRAERTGRNPQTGKEIKIAAANVPAFVSGKALKDAVK [P0ACF0] and answer again.
Response: 7.47

* * *

Test: total protein half-life in vivo (active degradation + dilution); higher = more stable protein
Conditions: wild type E. coli NCM3722; growth: C-lim chemostat; doubling time 12 h
Provide the reported total protein half-life in vivo of each item.
All answers are understood in h, so give the number only.

Request: GET /values?readout=total protein half-life in vivo&item= MEQLRAELSHLLGEKLSRIECVNEKADTALWALYDSQGNPMPLMARSFSTPGKARQLAWKTTMLARSGTVRMPTIYGVMTHEEHPGPDVLLLERMRGVSVEAPARTPERWEQLKDQIVEALLAWHRQDSRGCVGAVDNTQENFWPSWYRQHVEVLWTTLNQFNNTGLTMQDKRILFRTRECLPALFEGFNDNCVLIHGNFCLRSMLKDSRSDQLLAMVGPGLMLWAPREYELFRLMDNSLAEDLLWSYLQRAPVAESFIWRRWLYVLWDEVAQLVNTGRFSRRNFDLASKSLLPWLA [P0AB03]
Response: 6.84

Request: Now consider MSVRLVLAKGREKSLLRRHPWVFSGAVARMEGKASLGETIDIVDHQGKWLARGAYSPASQIRARVWTFDPSESIDIAFFSRRLQQAQKWRDWLAQKDGLDSYRLIAGESDGLPGITIDRFGNFLVLQLLSAGAEYQRAALISALQTLYPECSIYDRSDVAVRKKEGMELTQGPVTGELPPALLPIEEHGMKLLVDIQHGHKTGYYLDQRDSRLATRRYVENKRVLNCFSYTGGFAVSALMGGCSQVVSVDTSQEALDIARQNVELNKLDLSKAEFVRDDVFKLLRTYRDRGEKFDVIVMDPPKFVENKSQLMGACRGYKDINMLAIQLLNEGGILLTFSCSGLMTSDLFQKIIADAAIDAGRDVQFIEQFRQAADHPVIATYPEGLYLKGFACRVM and answer again.
Response: 11.3
